- Measured target: Human CDK12 wt/CycK (Homo sapiens (Human))
- Sequence (Q9NYV4 whole entry): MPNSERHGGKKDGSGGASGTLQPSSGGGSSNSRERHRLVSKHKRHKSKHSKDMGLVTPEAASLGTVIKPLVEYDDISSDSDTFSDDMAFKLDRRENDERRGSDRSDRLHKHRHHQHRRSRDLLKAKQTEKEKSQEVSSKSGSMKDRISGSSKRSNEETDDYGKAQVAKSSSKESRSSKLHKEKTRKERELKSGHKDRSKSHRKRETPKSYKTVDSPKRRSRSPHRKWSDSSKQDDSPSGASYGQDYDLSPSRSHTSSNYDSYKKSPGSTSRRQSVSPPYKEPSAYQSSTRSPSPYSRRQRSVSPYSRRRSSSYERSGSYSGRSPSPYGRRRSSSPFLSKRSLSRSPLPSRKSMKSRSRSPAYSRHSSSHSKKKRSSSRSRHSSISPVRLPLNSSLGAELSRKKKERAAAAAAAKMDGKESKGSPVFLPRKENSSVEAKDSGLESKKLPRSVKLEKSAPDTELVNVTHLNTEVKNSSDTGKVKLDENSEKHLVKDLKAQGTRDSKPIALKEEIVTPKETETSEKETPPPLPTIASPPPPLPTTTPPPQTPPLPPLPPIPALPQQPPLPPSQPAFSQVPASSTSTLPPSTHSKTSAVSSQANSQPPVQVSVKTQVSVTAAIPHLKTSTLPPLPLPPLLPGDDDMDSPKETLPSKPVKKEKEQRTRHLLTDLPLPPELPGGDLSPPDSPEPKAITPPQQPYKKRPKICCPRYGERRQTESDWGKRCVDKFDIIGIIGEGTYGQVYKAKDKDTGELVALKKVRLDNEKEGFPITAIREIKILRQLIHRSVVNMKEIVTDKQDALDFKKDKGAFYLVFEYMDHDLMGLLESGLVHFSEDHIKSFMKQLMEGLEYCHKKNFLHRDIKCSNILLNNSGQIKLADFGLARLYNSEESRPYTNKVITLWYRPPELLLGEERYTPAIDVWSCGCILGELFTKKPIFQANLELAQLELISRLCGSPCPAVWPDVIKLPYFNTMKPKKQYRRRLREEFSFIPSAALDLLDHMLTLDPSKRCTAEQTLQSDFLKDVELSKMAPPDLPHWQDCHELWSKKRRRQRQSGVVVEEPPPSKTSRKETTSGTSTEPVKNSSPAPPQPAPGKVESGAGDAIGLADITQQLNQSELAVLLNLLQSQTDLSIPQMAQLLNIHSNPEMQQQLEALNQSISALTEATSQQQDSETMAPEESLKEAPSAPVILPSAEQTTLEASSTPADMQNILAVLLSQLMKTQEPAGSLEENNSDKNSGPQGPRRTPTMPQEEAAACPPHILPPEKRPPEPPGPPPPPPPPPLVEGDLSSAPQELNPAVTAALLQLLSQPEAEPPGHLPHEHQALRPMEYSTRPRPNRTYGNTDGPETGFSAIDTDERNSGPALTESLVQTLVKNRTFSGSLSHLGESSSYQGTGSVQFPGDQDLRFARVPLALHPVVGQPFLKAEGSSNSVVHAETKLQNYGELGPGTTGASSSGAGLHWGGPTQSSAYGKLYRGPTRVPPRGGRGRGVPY
- Sequence (O75909 whole entry partner): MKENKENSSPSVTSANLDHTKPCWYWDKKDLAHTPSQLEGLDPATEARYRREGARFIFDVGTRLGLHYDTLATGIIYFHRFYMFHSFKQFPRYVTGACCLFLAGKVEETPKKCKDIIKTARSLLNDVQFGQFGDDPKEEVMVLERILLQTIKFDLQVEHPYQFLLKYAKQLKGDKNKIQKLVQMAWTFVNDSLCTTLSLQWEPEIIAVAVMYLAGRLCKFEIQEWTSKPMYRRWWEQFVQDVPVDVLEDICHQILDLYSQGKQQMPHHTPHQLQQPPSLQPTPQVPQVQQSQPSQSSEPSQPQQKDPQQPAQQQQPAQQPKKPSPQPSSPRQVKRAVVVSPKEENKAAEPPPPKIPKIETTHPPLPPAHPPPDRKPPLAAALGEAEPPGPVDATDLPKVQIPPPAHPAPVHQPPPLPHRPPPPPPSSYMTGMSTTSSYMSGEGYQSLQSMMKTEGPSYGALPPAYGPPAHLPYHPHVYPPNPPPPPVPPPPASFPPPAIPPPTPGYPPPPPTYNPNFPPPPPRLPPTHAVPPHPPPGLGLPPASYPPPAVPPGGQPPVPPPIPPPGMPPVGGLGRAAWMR
- Assay method text: Radiometric protein kinase assay (33PanQinase Activity Assay), CDK12
- Format: biochemical
- Condition details: read-out: CKD12 Biochemical Potency IC50
pIC50: −log10 of the molar value.
Use 7 as the dividing line for pIC50, with the line itself on the Met side and lower values as Not met.

Compound	Assigned category
O[C@H]1CNCC[C@@H]1CNc1cc(NCc2ccc(-c3nccs3)cc2F)n2ncc(C3CC3)c2n1 [PPA-054]	Met
CN(c1cc(NCc2ccc(-c3ccccn3)cc2)n2ncc(C3CC3)c2n1)C1CCNCC1 [PPA-039]	Not met
Fc1cc(-c2ccccn2)ccc1CNc1cc(N[C@H]2CCNC2)nc2c(C3CC3)cnn12 [PPA-072]	Met
O[C@H]1CNCC[C@@H]1CNc1cc(NCc2ccc(-c3ncccc3C(F)(F)F)cc2)n2ncc(C3CC3)c2n1 [PPA-036]	Not met
Clc1cnn2c(NCc3ccc(-c4ccccn4)cc3)cc(N[C@H]3CCCNC3)nc12 [PPA-093]	Met
